target: S. pyogenes SKKanGAS, kanamycin survival, BacTiterGlo, 6 h; test: S. pyogenes SKKanGAS kanamycin growth inhibitors – SKKanGAS strain, luminescence, dose confirmation, streptokinase promoter inhibitor project, dose response (AID 1902);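 note: lower survival reflects blocked streptokinase promoter driving kanamycin resistance gene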
Calls of active or inactive are those of the source.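 Rule for the calls: active = EC50 no more than a set limit of log units above the highest dose; inactive = the rest.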
For each record, write down the corresponding EC50.

Consider the following illustrative entries.
| molecule | EC50 |
| --- | --- |
| O=C(NC(=S)NNC(=O)c1cccs1)c1ccccc1 | 5.73 µM |
| O=C(CSc1nnc(CNC(=O)c2c(F)cccc2F)o1)NCCc1ccccc1 | > 15 µM (inactive) |
| C=C(C)COc1ccc(-c2[nH]ncc2Oc2cccc(OC)c2)c(O)c1 | 5.93 µM |

For every item in the list below, what is its measured EC50?
1. CCc1nnc(NS(=O)(=O)c2ccc(NC(=S)NC(=O)/C=C/c3ccc(C(C)C)cc3)cc2)s1
2. NC1CCN(c2nc3c(cc2F)c(=O)c(C(=O)O)cn3-c2ccc(F)cc2F)C1 (stereo not given)
3. COc1cccc(-c2nnc(NC(=O)c3ccc(S(=O)(=O)N4CC(C)OC(C)C4)cc3)o2)c1 (stereo not given)
4. Cc1ccc(/C=C2/Sc3ccc(C(=O)N4CCC5(CC4)OCCO5)cc3NC2=O)cc1

## Result
1. 3.11 µM
2. 0.296 µM
3. 1.16 µM
4. 5.88 µM

For every item in the list below, what is its measured EC50?
1. Cc1[nH]n(-c2ccc(Br)cc2)c(=O)c1/C=N/NC(=O)c1ccccc1
2. Cc1nn(-c2ccccc2)c(C)c1/C=N/NC(=O)c1cc(-c2cccc3ccccc23)n[nH]1

## Result
["0.428 µM", "6.54 µM"]

## Task Tell me the measured EC50 of COc1ccc2c(C)nc(Nc3nc(-c4ccccc4)cc(=O)[nH]3)nc2c1 , please.
## Result 2.75 µM
